EXPERIMENTAL PROTOCOL: Pharmacokinetic assay in Balb/c mice (plasma and brain tissue)
Assay type: in vivo
CONDITIONS USED: male, Balb/c, mouse, plasma, po, 5 mg/kg, Balb/c mice, 5 mg/kg p.o., plasma; read-out: Area under curve AUC0-t
PARAMETER MEASURED: AUC(0-t) (ng·h/mL)
Reply with just the number (in ng·h/mL).

## Input For the compound C[C@@]1(O)CC[C@@]2(F)[C@H](CC[C@H]3[C@@H]4CC[C@H](C(=O)Cn5cc(C#N)cn5)[C@@]4(C)CC[C@@H]32)C1 , what AUC(0-t) is on record?
## Output 2660
